assay: Cytotoxicity against mammalian cells (MTT); type: cell-based; conditions: mouse, NCTC clone 929 fibroblasts, NCTC clone 929 murine fibroblasts
REPORTED_METRIC: CC50 at 48 h

INSERT INTO results (compound, observed_result) VALUES
  ('O=C(Cn1ccnc1[N+](=O)[O-])NCc1ccccc1 [benznidazole]', '> 200 µg/mL');
